Target: Glucocorticoid receptor (Homo sapiens) (UniProt P04150)
Sequence (P04150 whole entry, looked up): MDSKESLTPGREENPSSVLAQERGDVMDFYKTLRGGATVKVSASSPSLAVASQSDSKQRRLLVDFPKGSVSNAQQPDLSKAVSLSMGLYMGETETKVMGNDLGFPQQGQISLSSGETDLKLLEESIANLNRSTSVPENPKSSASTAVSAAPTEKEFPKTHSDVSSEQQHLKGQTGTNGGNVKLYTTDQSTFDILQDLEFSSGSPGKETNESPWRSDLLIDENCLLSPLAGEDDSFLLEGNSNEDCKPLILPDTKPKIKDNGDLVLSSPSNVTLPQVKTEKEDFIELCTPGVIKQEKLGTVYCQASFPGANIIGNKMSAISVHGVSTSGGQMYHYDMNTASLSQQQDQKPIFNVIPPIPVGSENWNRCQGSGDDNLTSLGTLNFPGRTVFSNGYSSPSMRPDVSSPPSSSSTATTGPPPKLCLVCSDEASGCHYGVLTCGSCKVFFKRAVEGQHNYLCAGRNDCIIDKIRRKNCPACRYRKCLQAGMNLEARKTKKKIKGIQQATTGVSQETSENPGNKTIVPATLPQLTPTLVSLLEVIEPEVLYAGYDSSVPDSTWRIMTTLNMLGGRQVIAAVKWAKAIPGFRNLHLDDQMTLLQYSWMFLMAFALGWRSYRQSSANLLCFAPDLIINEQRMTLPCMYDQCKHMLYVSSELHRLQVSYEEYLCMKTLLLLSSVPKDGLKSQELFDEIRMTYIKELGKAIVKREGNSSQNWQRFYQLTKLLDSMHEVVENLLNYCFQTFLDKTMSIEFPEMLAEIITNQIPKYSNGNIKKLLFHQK
Assay: qHTS assay to identify small molecule antagonists of the glucocorticoid receptor (GR) signaling pathway (AID 720692)
Details: GR-bla HeLa, beta-lactamase FRET ratio, dexamethasone-stimulated, 18 h; series mostly up to 58.5 µM
Records with an inconclusive call do not appear. Calls of active or inactive are those of the source. The call rests on the fitted dose curve; in most records, active means well fitted inhibition curve with a large enough effect in the signal ratio in the repeat runs (not every such curve was filed as active); inconclusive means weak or mixed curves, or effect the other way; inactive means no such curve, though single readings can be large or run the other way; the % refers to the signal ratio.
Labels: active, inactive

>>> print(df.to_string())
                                    molecule  labelclass
 0             Cc1cccc([N+](=O)[O-])c1C(=O)O    inactive
 1  CC(C)(C)NC(=O)[C@@H]1CN(Cc2cccnc2)CCN1C[C@@H](O)C[C@@H](Cc1ccccc1)C(=O)N[C@H]1c2ccccc2C[C@H]1O    inactive
 2                  Cc1occc(=O)c1OC(=O)C(C)C    inactive
 3  c1cc(C(c2ccc(OCC3CO3)cc2)C(c2ccc(OCC3CO3)cc2)c2ccc(OCC3CO3)cc2)ccc1OCC1CO1 (configuration not stated)    inactive
 4  CCN1CCCC1CNC(=O)c1cc(S(=O)(=O)CC)c(N)cc1OC (configuration not stated)    inactive
 5                          CCCC(=O)c1ccccc1    inactive
 6                   NC(=Nc1ccccc1)Nc1ccccc1    inactive
 7  OCC(CO)N[C@H]1C[C@](O)(CO)[C@@H](O)[C@H](O)[C@H]1O    inactive
 8   CC(C)(C)c1cc(C(C)(C)C)c(O)c(C(C)(C)C)c1    inactive
 9                         C=CC(=O)OCCCCCCCC    inactive
10  CC[C@H]1CN2CCc3cc(OC)c(OC)cc3[C@@H]2C[C@@H]1C[C@H]1NCCc2cc(OC)c(OC)cc21      active
11                CCN(CC)C(=S)SSC(=S)N(CC)CC    inactive
12                        CC(C)(O)CCC(C)(C)O    inactive
13                               OCCN1CCNCC1    inactive
14  CCn1cc(C(=O)O)c(=O)c2cc(F)c(N3CCNC(C)C3)c(F)c21 (configuration not stated)    inactive
15                         CC(C)CCOCc1ccccc1    inactive
16                     NC12CC3CC(CC(C3)C1)C2    inactive
17  CC(=O)OCC1=C(C(=O)O)N2C(=O)[C@@H](NC(=O)Cc3cccs3)[C@H]2SC1    inactive
18  CCCNC(C)C(=O)Nc1ccccc1C (configuration not stated)    inactive
19  CNCCC(Oc1ccc(C(F)(F)F)cc1)c1ccccc1 (configuration not stated)    inactive
20                  O=C(Cl)c1cccc(C(=O)Cl)c1    inactive
21                    CO[Si](OC)(OC)c1ccccc1    inactive
22  CCC(=O)/C=C/C1C(C)=CCCC1(C)C (configuration not stated)    inactive
23                        CCCCCCCCCCCCCCCCCl    inactive
24                      COC(=O)/C=C/c1ccccc1    inactive
25   CC1COC(=O)O1 (configuration not stated)    inactive
26                                   CC(N)=O    inactive
